# tested target: NS5B (Hepatitis C virus genotype 1b)
experimental endpoint: IC50 (nM)

Consider the reported IC50 for these compounds:
1. CC1(C)CN2CCn3c(c(C4CCCCC4)c4ccc(C(=O)O)cc43)-c3cccc(c32)[C@H]1N: 4
2. NC1CCN2CCn3c(c(C4CCCCC4)c4ccc(C(=O)O)cc43)-c3cccc1c32 (stereo not shown): 4.39

a: CCCN[C@@H]1CCN2CCn3c(c(C4CCCCC4)c4ccc(C(=O)O)cc43)-c3cccc1c32
b: O=C(O)c1ccc2c(C3CCCCC3)c3n(c2c1)CCN1CCC(NC2CCC2)c2cccc-3c21 (stereo not shown)
Exercise: Two entries are listed, a and b . Which one carries the higher IC50? Identify your pick by its label.
Key: b
(b: 4.02 nM, a: 1.94 nM)

----------
# tested target: HCV-NS5b (Hepatitis C virus genotype 1b, UniProt Q9WMX2)
# Construct: (His)6 (C); made in house; host or cells: XL-1 cells (E. coli), IPTG-inducible plasmid
# test name: HCV-NS5b enzyme assay using homopolymer substrate
# Assay type: biochemical
# applied conditions: homopolymer substrate, [3H]-UTP incorporation, 30° C., 90 minutes; read-out: IC50
pIC50: −log10 of the molar value.
experimental endpoint: pIC50

1) O=C(O)c1ccc2c(C3CCCCC3)c3n(c2c1)CCCn1cc(CN2CCCCC2)c2c(F)ccc-3c21: 6.90
2) CC1CCC(C)N1Cc1cn2c3c(cccc13)-c1c(C3CCCCC3)c3ccc(C(=O)O)cc3n1CCC2 (stereo not drawn): 6.85
3) C[C@@H]1CC[C@@H](C)N1Cc1cn2c3c(cccc13)-c1c(C3CCCCC3)c3ccc(C(=O)O)cc3n1CCC2: 6.98

----------
# tested target: HCV-NS5b (Hepatitis C virus genotype 1b)
# Construct: (His)6 (C); made in house; host or cells: XL-1 cells (E. coli), IPTG-inducible plasmid
# test name: HCV-NS5b enzyme assay using homopolymer substrate
# Assay type: biochemical
# applied conditions: homopolymer substrate, [3H]-UTP incorporation, 30° C., 90 minutes; read-out: IC50
pIC50: −log10 of the molar value.
experimental endpoint: pIC50

1) CN(C)Cc1cn2c3c(cccc13)-c1c(C3CCCCC3)c3ccc(C(=O)O)cc3n1CCCC2: 6.96
2) CNCc1cn2c3c(cccc13)-c1c(C3CCCCC3)c3ccc(C(=O)O)cc3n1CCC2: 6.97
3) CCN(CC)Cc1cn2c3c(cccc13)-c1c(C3CCCCC3)c3ccc(C(=O)O)cc3n1CCC2: 7.07
4) O=C(O)c1ccc2c(C3CCCCC3)c3n(c2c1)CCCn1cc(CN2CCSCC2)c2cccc-3c21: 7.00
5) O=C(O)CNCc1cn2c3c(cccc13)-c1c(C3CCCCC3)c3ccc(C(=O)O)cc3n1CCC2: 7.03
6) CN(C)Cc1cn2c3c(cccc13)-c1c(C3CCCCC3)c3ccc(C(=O)O)cc3n1CC2: 7.08
7) O=C(O)c1ccc2c(C3CCCCC3)c3n(c2c1)CCCn1cc(-c2nnn[nH]2)c2cccc-3c21: 6.99

----------
# tested target: NS5B (Hepatitis C virus genotype 1b)
pIC50: −log10 of the molar value.
experimental endpoint: pIC50

Consider the reported pIC50 for these molecules:
1) CN(C)C(=O)c1c(CNS(=O)(=O)C2CC2)c2cccc3c2n1CCCn1c-3c(C2CCCCC2)c2ccc(C(=O)O)cc21 [Compound 310]: 8.22
2) O=C(O)c1ccc2c(C3CCCCC3)c3n(c2c1)CCCn1cc(CNS(=O)(=O)C2CC2)c2cccc-3c21 [Compound 304]: 8.05
3) CCN(C)Cc1c(C(=O)N(CC)CC)n2c3c(cccc13)-c1c(C3CCCCC3)c3ccc(C(=O)O)cc3n1CCC2 [Compound 317]: 8.30
4) O=C(O)c1ccc2c(C3CCCCC3)c3n(c2c1)CCCN1C(=O)C2(CC2)c2cccc-3c21 [Compound 269]: 7.68
5) NCCC1CCN2CCn3c(c(C4CCCCC4)c4ccc(C(=O)O)cc43)-c3cccc1c32 (single isomer, unassigned) [Compound 302]: 8.57

1: CCC1(CC)C(=O)N2CCCn3c(c(C4CCCCC4)c4ccc(C(=O)O)cc43)-c3cccc1c32 [Compound 266]
2: CC(C)(C)OC(=O)N[C@@H]1CCN2CCn3c(c(C4CCCCC4)c4ccc(C(=O)O)cc43)-c3cccc1c32 [Compound 294]
Exercise: Looking at recorded values for pIC50, does 1 or 2 come in lower? Identify your pick by its label.
Key: 1
(1: 7.96, 2: 8.81)
